For each of the sequences below, state its shrunken log2 fold change.
- System: Escherichia coli TOP10
- measurement notes: shrunken log2 fold change of peptide-encoding DNA abundance (4.5 h post-induction vs induction); higher = less antimicrobial activity (less host growth inhibition)
- condition summary: time post-induction: 4.5 h; library: site-saturation at positions 5, 18, 19, 20
Give bare numbers.

Here's what some known entries look like.
sequence_code=RRIRPRPPRLPRPRPRPGQMPRP measure="shrunken log2 fold change" value=-0.0125
sequence_code=RRIRGRPPRLPRPRPRPPTLPRP measure="shrunken log2 fold change" value=0.596
sequence_code=RRIRWRPPRLPRPRPRPQTRPRP measure="shrunken log2 fold change" value=0.122
sequence_code=RRIRGRPPRLPRPRPRPCRMPRP measure="shrunken log2 fold change" value=0.0426
sequence_code=RRIRMRPPRLPRPRPRPVMGPRP measure="shrunken log2 fold change" value=0.387

Look up shrunken log2 fold change for the entries below, preserving their order.
1. RRIRSRPPRLPRPRPRPYQIPRP
2. RRIRCRPPRLPRPRPRPPHFPRP
3. RRIRFRPPRLPRPRPRPRTMPRP

1: -0.106; 2: 0.872; 3: 0.0577

---

- System: Escherichia coli TOP10
- measurement notes: shrunken log2 fold change of peptide-encoding DNA abundance (4.5 h post-induction vs induction); higher = less antimicrobial activity (less host growth inhibition)
- condition summary: time post-induction: 4.5 h; library: site-saturation at positions 5, 18, 19, 20
measure: shrunken log2 fold change

Here's what some known entries look like.
sequence_code=RRIRFRPPRLPRPRPRPYYCPRP measure="shrunken log2 fold change" value=-0.74
sequence_code=RRIRMRPPRLPRPRPRPGHVPRP measure="shrunken log2 fold change" value=0.329
sequence_code=RRIRDRPPRLPRPRPRPWVYPRP measure="shrunken log2 fold change" value=-0.0138

Look up shrunken log2 fold change for the entries below, preserving their order.
1. RRIRLRPPRLPRPRPRPQHRPRP
2. RRIRQRPPRLPRPRPRPQQKPRP
3. RRIRYRPPRLPRPRPRPCTKPRP
4. RRIRGRPPRLPRPRPRPRFPPRP

1. -0.0199
2. -0.023
3. -1.15
4. 0.412

---

- System: Escherichia coli TOP10;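 further: peptides expressed intracellularly from a pBAD plasmid library in pooled LB shake-flask culture, induced with 0.3% L-arabinose, DNA abundance read by NGS, three biological replicates, DESeq2 with apeglm shrinkage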
- measurement notes: shrunken log2 fold change of peptide-encoding DNA abundance (4.5 h post-induction vs induction); higher = less antimicrobial activity (less host growth inhibition)
- condition summary: time post-induction: 4.5 h; library: site-saturation at positions 5, 18, 19, 20
measure: shrunken log2 fold change

Here's what some known entries look like.
sequence_code=RRIRDRPPRLPRPRPRPVKEPRP measurement_target="Escherichia coli TOP10" measure="shrunken log2 fold change" value=-0.0586
sequence_code=RRIRARPPRLPRPRPRPNRFPRP measurement_target="Escherichia coli TOP10" measure="shrunken log2 fold change" value=0.145
sequence_code=RRIRWRPPRLPRPRPRPAISPRP measurement_target="Escherichia coli TOP10" measure="shrunken log2 fold change" value=-0.00844

Look up shrunken log2 fold change for the entries below, preserving their order.
1. RRIRSRPPRLPRPRPRPKYCPRP
2. RRIRARPPRLPRPRPRPCPRPRP
3. RRIRARPPRLPRPRPRPTEMPRP

[-0.263, 0.898, -0.00782]

Look up shrunken log2 fold change for the entries below, preserving their order.
1. RRIRQRPPRLPRPRPRPMPCPRP
2. RRIRSRPPRLPRPRPRPPMLPRP

1. -0.00136
2. 0.0967
